ASSAY_PROTOCOL: total protein half-life in vivo (active degradation + dilution); higher = more stable protein
CONDITION_NOTES: wild type E. coli NCM3722; growth: P-lim chemostat; doubling time 12 h
total protein half-life in vivo values by entry
Please reply with the bare figure in h and do not write the unit itself.

SEQUENCE_CONTENT	PROPERTY_LABEL	RECORDED_NUMBER
MGMIGYFAEIDSEKINQLLESTEKPLMDNIHDTLSGLRRLDIDKRWDFLHFGLTGTSAFDPAKNDPLSRAVLGEHSLEDGIDGFLGLTWNQELAATIDRLESLDRNELRKQFSIKRLNEMEIYPGVTFSEELEGQLFASIMLDMEKLISAYRRMLRQGNHALTVIVG	total protein half-life in vivo	6.19
MKKTAIAIAVALAGFATVAQAAPKDNTWYTGAKLGWSQYHDTGFINNNGPTHENQLGAGAFGGYQVNPYVGFEMGYDWLGRMPYKGSVENGAYKAQGVQLTAKLGYPITDDLDIYTRLGGMVWRADTKSNVYGKNHDTGVSPVFAGGVEYAITPEIATRLEYQWTNNIGDAHTIGTRPDNGMLSLGVSYRFGQGEAAPVVAPAPAPAPEVQTKHFTLKSDVLFNFNKATLKPEGQAALDQLYSQLSNLDPKDGSVVVLGYTDRIGSDAYNQGLSERRAQSVVDYLISKGIPADKISARGMGESNPVTGNTCDNVKQRAALIDCLAPDRRVEIEVKGIKDVVTQPQA [P0A910]	total protein half-life in vivo	15

Q: # return recorded total protein half-life in vivo for entry "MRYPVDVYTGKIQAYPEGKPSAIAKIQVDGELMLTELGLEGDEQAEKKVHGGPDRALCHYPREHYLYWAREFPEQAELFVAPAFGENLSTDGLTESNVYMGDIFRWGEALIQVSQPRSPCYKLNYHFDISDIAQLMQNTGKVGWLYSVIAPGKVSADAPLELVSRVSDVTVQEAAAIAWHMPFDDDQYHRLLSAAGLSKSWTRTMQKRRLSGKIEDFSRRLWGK"
A: 12

Q: # return recorded total protein half-life in vivo for entry "MIVLVTGATAGFGECITRRFIQQGHKVIATGRRQERLQELKDELGDNLYIAQLDVRNRAAIEEMLASLPAEWCNIDILVNNAGLALGMEPAHKASVEDWETMIDTNNKGLVYMTRAVLPGMVERNHGHIINIGSTAGSWPYAGGNVYGATKAFVRQFSLNLRTDLHGTAVRVTDIEPGLVGGTEFSNVRFKGDDGKAEKTYQNTVALTPEDVSEAVWWVSTLPAHVNINTLEMMPVTQSYAGLNVHRQ"
A: 11.6

Q: # return recorded total protein half-life in vivo for entry "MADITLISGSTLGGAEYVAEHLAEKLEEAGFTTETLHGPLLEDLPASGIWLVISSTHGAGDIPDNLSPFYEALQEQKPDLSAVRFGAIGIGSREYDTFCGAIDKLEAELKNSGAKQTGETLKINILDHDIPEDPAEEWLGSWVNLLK"
A: 9.52

Q: # return recorded total protein half-life in vivo for entry MTKYALVGDVGGTNARLALCDIASGEISQAKTYSGLDYPSLEAVIRVYLEEHKVEVKDGCIAIACPITGDWVAMTNHTWAFSIAEMKKNLGFSHLEIINDFTAVSMAIPMLKKEHLIQFGGAEPVEGKPIAVYGAGTGLGVAHLVHVDKRWVSLPGEGGHVDFAPNSEEEAIILEILRAEIGHVSAERVLSGPGLVNLYRAIVKADNRLPENLKPKDITERALADSCTDCRRALSLFCVIMGRFGGNLALNLGTFGGVFIAGGIVPRFLEFFKASGFRAAFEDKGRFKEYVHDIPVYLIVHDNPGLLGSGAHLRQTLGHIL [P0A6V8]
A: 15.2

* * *

ASSAY_PROTOCOL: total protein half-life in vivo (active degradation + dilution); higher = more stable protein
CONDITION_NOTES: E. coli NCM3722 delta-hslV; growth: N-lim chemostat; doubling time 6 h
total protein half-life in vivo values by entry
Please reply with the bare figure in h and do not write the unit itself.

Record excerpt, results attached:
SEQUENCE_CONTENT	total protein half-life in vivo (h)
MSNLTYLQGYPEQLLSQVRTLINEQRLGDVLAKRYPGTHDYATDKALWQYTQDLKNQFLRNAPPINKVMYDNKIHVLKNALGLHTAVSRVQGGKLKAKVEIRVATVFRNAPEPFLRMIVVHELAHLKEKEHNKAFYQLCCHMEPQYHQLEFDTRLWLTQLSLGQNKI	1.16
MKQLWFAMSLVTGSLLFSANASATPASGALLQQMNLASQSLNYELSFISINKQGVESLRYRHARLDNRPLAQLLQMDGPRREVVQRGNEISYFEPGLEPFTLNGDYIVDSLPSLIYTDFKRLSPYYDFISVGRTRIADRLCEVIRVVARDGTRYSYIVWMDTESKLPMRVDLLDRDGETLEQFRVIAFNVNQDISSSMQTLAKANLPPLLSVPVGEKAKFSWTPTWLPQGFSEVSSSRRPLPTMDNMPIESRLYSDGLFSFSVNVNRATPSSTDQMLRTGRRTVSTSVRDNAEITIVGELPPQTAKRIAENIKFGAAQ [P0AFX9]	6.13

Now look at this entry.
Q: # return recorded total protein half-life in vivo for entry "MDNRGEFLNNVAQALGRPLRLEPQAEDAPLNNYANERLTQLNQQQRCDAFIQFASDVMLTRCELTSEAKAAEAAIRLCKELGDQSVVISGDTRLEELGISERLQQECNAVVWDPAKGAENISQAEQAKVGVVYAEYGLTESGGVVLFSAAERGRSLSLLPEYSLFILRKSTILPRVAQLAEKLHQKAQAGERMPSCINIISGPSSTADIELIKVVGVHGPVKAVYLIIEDC"
A: 1.64

* * *

ASSAY_PROTOCOL: total protein half-life in vivo (active degradation + dilution); higher = more stable protein
CONDITION_NOTES: E. coli NCM3722 delta-clpP; growth: N-lim chemostat; doubling time 6 h
PROPERTY_LABEL: total protein half-life in vivo

Record excerpt, results attached:
SEQUENCE_CONTENT	total protein half-life in vivo
MATDSTQCVKKSRGRPKVFDRDAALDKAMKLFWQHGYEATSLADLVEATGAKAPTLYAEFTNKEGLFRAVLDRYIDRFAAKHEAQLFCEEKSVESALADYFAAIANCFTSKDTPAGCFMINNCTTLSPDSGDIANTLKSRHAMQERTLQQFLCQRQARGEIPPHCDVTHLAEFLNCIIQGMSISAREGASLEKLMQIAGTTLRLWPELVK	3.65 h
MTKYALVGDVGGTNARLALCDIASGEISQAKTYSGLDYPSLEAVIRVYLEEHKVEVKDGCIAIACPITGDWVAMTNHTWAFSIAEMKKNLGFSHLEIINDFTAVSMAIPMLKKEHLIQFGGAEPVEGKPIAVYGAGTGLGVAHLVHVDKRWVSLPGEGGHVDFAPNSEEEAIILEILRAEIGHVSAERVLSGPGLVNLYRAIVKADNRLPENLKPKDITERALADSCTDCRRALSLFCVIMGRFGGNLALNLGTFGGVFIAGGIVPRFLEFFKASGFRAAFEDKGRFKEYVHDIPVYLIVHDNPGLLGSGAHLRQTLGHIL [P0A6V8]	5.45 h

Now look at this entry.
Q: # return recorded total protein half-life in vivo for entry MTHKATEILTGKVMQKSVLITGCSSGIGLESALELKRQGFHVLAGCRKPDDVERMNSMGFTGVLIDLDSPESVDRAADEVIALTDNCLYGIFNNAGFGMYGPLSTISRAQMEQQFSANFFGAHQLTMRLLPAMLPHGEGRIVMTSSVMGLISTPGRGAYAASKYALEAWSDALRMELRHSGIKVSLIEPGPIRTRFTDNVNQTQSDKPVENPGIAARFTLGPEAVVDKVRHAFISEKPKMRYPVTLVTWAVMVLKRLLPGRVMDKILQG [P0AFP4]
A: 6.01 h

* * *

ASSAY_PROTOCOL: total protein half-life in vivo (active degradation + dilution); higher = more stable protein
CONDITION_NOTES: E. coli NCM3722 delta-clpP delta-lon delta-hslV; growth: N-lim chemostat; doubling time 6 h
total protein half-life in vivo values by entry
Please reply with the bare figure in h and do not write the unit itself.

SEQUENCE_CONTENT	RESULT_UNIT	total protein half-life in vivo
MYERYAGLIFDMDGTILDTEPTHRKAWREVLGHYGLQYDIQAMIALNGSPTWRIAQAIIELNQADLDPHALAREKTEAVRSMLLDSVEPLPLVDVVKSWHGRRPMAVGTGSESAIAEALLAHLGLRHYFDAVVAADHVKHHKPAPDTFLLCAQRMGVQPTQCVVFEDADFGIQAARAAGMDAVDVRLL	h	5.33
MRVLGIETSCDETGIAIYDDEKGLLANQLYSQVKLHADYGGVVPELASRDHVRKTVPLIQAALKESGLTAKDIDAVAYTAGPGLVGALLVGATVGRSLAFAWDVPAIPVHHMEGHLLAPMLEDNPPEFPFVALLVSGGHTQLISVTGIGQYELLGESIDDAAGEAFDKTAKLLGLDYPGGPLLSKMAAQGTAGRFVFPRPMTDRPGLDFSFSGLKTFAANTIRDNGTDDQTRADIARAFEDAVVDTLMIKCKRALDQTGFKRLVMAGGVSANRTLRAKLAEMMKKRRGEVFYARPEFCTDNGAMIAYAGMVRFKAGATADLGVSVRPRWPLAELPAA	h	4.38
MKLFYKPGACSLASHITLRESGKDFTLVSVDLMKKRLENGDDYFAVNPKGQVPALLLDDGTLLTEGVAIMQYLADSVPDRQLLAPVNSISRYKTIEWLNYIATELHKGFTPLFRPDTPEEYKPTVRAQLEKKLQYVNEALKDEHWICGQRFTIADAYLFTVLRWAYAVKLNLEGLEHIAAFMQRMAERPEVQDALSAEGLK [P0A9D2]	h	4.9

Now look at this entry.
Q: # return recorded total protein half-life in vivo for entry "MNIENLKTKAEADISEYITKKIIELKKKTGKEVTSIQFTAREKMTGLESYDVKINLI"
A: 6.69
